System: Tyrosine-protein phosphatase non-receptor type 1 (Homo sapiens, UniProt P18031) | Read-out: pIC50 | Origin: multiple publications
pIC50: −log10 of the molar value.
PROPERTY NAME: pIC50

Field: example entries. Status: answers known.
O=C(NC1CC1(F)F)c1ccc2sc(C(F)(F)P(=O)(O)O)c(Br)c2c1 (stereo not shown); 5.64
CC(C)(C)c1ccc(COc2cc(C(N)=O)cc3c(Br)c(C(F)(F)P(=O)(O)O)sc23)cc1; 6.96
O=C(O)C(=O)Nc1ccc(CN(c2ccc(Cl)c(Cl)c2)c2nnc(-c3cccc(Oc4cccc(C(F)(F)F)c4)c3)s2)cc1; 6.00
CNc1nc(N)nc2nc(-c3ccccc3)c(-c3ccccc3)cc12; 5.59

(I) COC(=O)N[C@@H](Cc1ccccc1)C(=O)N[C@@H](Cc1ccc(NS(=O)(=O)O)cc1)c1csc(-c2cccs2)n1
(II) Cc1ccc(-c2ccc(-c3ccc(O[C@H](Cc4ccccc4)C(=O)O)cc3)cc2)n1-c1ccc(Br)cc1
stdin: For the two items I and II , which reports the higher pIC50 value? Indicate which entry you chose by stating its label.
stdout: II
(II: 6.47, I: 6.22)

(A) NC(=O)c1cc(OCc2ccc(OC(F)(F)F)cc2)c2sc(C(F)(F)P(=O)(O)O)c(Br)c2c1
(B) O=C(O)/C=C/c1ccc(-c2nc(-c3ccco3)[nH]c2-c2ccc(/C=C/C(=O)O)cc2)cc1
stdin: For the two items A and B , which reports the higher pIC50 value? Indicate which entry you chose by stating its label.
stdout: A
